Target chain: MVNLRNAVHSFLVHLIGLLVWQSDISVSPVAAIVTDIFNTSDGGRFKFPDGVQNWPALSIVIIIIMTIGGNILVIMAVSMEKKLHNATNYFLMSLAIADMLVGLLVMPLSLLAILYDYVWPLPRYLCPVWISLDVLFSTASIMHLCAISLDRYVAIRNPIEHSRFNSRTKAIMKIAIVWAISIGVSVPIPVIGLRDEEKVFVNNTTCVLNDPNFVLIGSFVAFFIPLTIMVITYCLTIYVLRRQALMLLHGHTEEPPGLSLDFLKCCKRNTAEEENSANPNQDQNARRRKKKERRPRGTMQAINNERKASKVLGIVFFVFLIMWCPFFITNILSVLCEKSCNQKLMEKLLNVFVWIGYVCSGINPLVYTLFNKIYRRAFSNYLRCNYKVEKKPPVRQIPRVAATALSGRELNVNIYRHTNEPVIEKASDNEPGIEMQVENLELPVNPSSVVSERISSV

smiles_str	Ki
COc1ccccc1S(=O)(=O)n1c2c(c3ccccc31)CCNCC2	14 nM

###

Target: 5-hydroxytryptamine receptor 6 (Homo sapiens, UniProt P50406)
Sequence (P50406 whole entry): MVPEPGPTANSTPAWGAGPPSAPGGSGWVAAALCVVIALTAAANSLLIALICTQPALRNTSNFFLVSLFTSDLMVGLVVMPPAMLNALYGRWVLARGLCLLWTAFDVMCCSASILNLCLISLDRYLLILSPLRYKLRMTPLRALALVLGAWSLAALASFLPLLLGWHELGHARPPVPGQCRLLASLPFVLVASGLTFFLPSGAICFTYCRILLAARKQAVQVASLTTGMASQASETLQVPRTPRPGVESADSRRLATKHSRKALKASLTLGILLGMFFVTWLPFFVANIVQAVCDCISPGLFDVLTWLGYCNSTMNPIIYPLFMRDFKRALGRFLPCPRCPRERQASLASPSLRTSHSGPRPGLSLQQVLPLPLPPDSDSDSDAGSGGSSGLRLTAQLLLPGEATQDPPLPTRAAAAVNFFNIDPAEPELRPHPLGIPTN
Assay: Antagonist activity at cloned human 5HT6 receptor expressed in HeLa cells assessed as production of cAMP

smiles_str	IC50, nM
COc1ccccc1S(=O)(=O)n1c2c(c3ccccc31)CCNCC2	162

###

Target: UniProtKB P50406
Label satisfied when Ki is strictly below 40 nM; at or above that, label not satisfied.

smiles_str	measured_on	class
Cc1cccc(S(=O)(=O)n2c3c(c4ccccc42)CCNCC3)c1	UniProtKB P50406	not satisfied
COc1cccc(S(=O)(=O)n2c3c(c4ccccc42)CCN(C2CCCC2)CC3)c1	UniProtKB P50406	not satisfied
CCN1CCc2c(n(S(=O)(=O)c3ccccc3)c3ccccc23)CC1	UniProtKB P50406	satisfied
O=S(=O)(c1cccc(C(F)(F)F)c1)n1c2c(c3ccccc31)CCNCC2	UniProtKB P50406	not satisfied
O=S(=O)(c1ccc(Cl)cc1)n1c2c(c3ccccc31)CCNCC2	UniProtKB P50406	satisfied
O=S(=O)(c1ccc(C(F)(F)F)cc1)n1c2c(c3ccccc31)CCNCC2	UniProtKB P50406	not satisfied
COc1cccc(S(=O)(=O)n2c3c(c4ccccc42)CCN(C(C)C)CC3)c1	UniProtKB P50406	not satisfied
COc1cccc(S(=O)(=O)n2c3c(c4ccccc42)CCN(C)CC3)c1	UniProtKB P50406	satisfied
COc1cccc(S(=O)(=O)n2c3c(c4ccccc42)CCN(Cc2ccccc2)CC3)c1	UniProtKB P50406	not satisfied
CCN1CCc2c(n(S(=O)(=O)c3cccc(OC)c3)c3ccccc23)CC1	UniProtKB P50406	not satisfied
COc1ccccc1S(=O)(=O)n1c2c(c3ccccc31)CCNCC2	UniProtKB P50406	satisfied
O=S(=O)(c1ccccc1)n1c2c(c3ccccc31)CCNCC2	UniProtKB P50406	not satisfied
O=S(=O)(c1ccccc1Cl)n1c2c(c3ccccc31)CCNCC2	UniProtKB P50406	satisfied
O=S(=O)(c1ccc(F)cc1)n1c2c(c3ccccc31)CCNCC2	UniProtKB P50406	satisfied
CCCN1CCc2c(n(S(=O)(=O)c3cccc(OC)c3)c3ccccc23)CC1	UniProtKB P50406	not satisfied
Cc1ccc(S(=O)(=O)n2c3c(c4ccccc42)CCNCC3)cc1	UniProtKB P50406	satisfied

Source listed as ChEMBL document CHEMBL1155096.
